Molecular target: SNX27, Q96L92
Experiment: holdup assay
Parameters: key: below the threshold = too weak to quantify, mostly under pKd 3.1 to 4
Details: plain residues with an end cap or a label only (N-terminal biotin on a linker: ado-ado)
parameter-measured: pKd

>>> result("KLQNPNQSVV [TYRP1, P17643]")
4.04
>>> result("SKQFDKNAYV [CLDN10, P78369]")
3.78
>>> result("DLLGGGSDSI [TNRC6B, Q9UPQ9]")
"below the threshold"
>>> result("FHSIKQSTAV [CRHR1, P34998]")
4.91
>>> result("PGKKPEDSRV [SLCO2B1, O94956]")
4.43
>>> result("KAEEKPPSKV [SCN4B, Q8IWT1]")
"below the threshold"
>>> result("IKLETKKTKL [SLC15A2, Q16348]")
3.94
>>> result("DYSNLRETDI [ADRA1D, P25100]")
4.21

Continue with the binder presented below.
Param item = KSRPENGTVC [TMEM178B, H3BS89] ; retrieve measured pKd. 3.58
